# STUDY_TARGET: ZFP SBS#746 (synthetic)
# Sequence (chain, as listed by the source): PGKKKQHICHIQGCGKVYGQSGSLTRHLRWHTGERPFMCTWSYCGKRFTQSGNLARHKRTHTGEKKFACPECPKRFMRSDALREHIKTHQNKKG
# MEASUREMENT_NOTES: EMSA
# CONDITIONS_USED: tags: MBP fusion
PROPERTY: Kd (nM)
Give bare numbers, in nM.

Ask: Consider the binder CTGGAAGCAT (dsDNA) DNA 1: CTGGAAGCAT DNA 2: ATGCTTCCAG and give its measured Kd.
Result: 2.07
